Exercise: for every item that follows, state its recorded apparent KD of MS2 coat protein.
system: MS2 coat protein; assay: apparent KD of MS2 coat protein; designed switch direction (-1 OFF switch, 1 ON switch): -1; higher = weaker reporter binding; settings: input ligand: none
Give your result as the value with the unit written after it.

Short answer for AUGCGUGGCUAGGAUAUUGAGGAAUUUAGCCAGCAAGAAGGAGCCACAUGAGGAUCACCCAUGUGGUGAACCUC [jl-ex6-4.61 ViennaUCT mod] (Eterna round: R97, puzzle: Exclusion 6) : apparent KD of MS2 coat protein was 30.6 nM

apparent KD of MS2 coat protein for GGAGGGAAAGUGAGGAUAUCCGGAGGGAAACCUCCGGAGAAGGCACAUGAGGAUCACCCAUGUAAGGAAGGAGG [AK-MS2ROC-r4-Bmoexclusion4-1.1] (Eterna round: R97, puzzle: Brourd's mod of Exclusion 4) is 135 nM

Sure, the documented apparent KD of MS2 coat protein for CUGUACUGAGGAUAUACAUGAGGAUCACCCAUGUGUUCCUGCUAGGAAACUAGCAAGGGUAGAAGGCAGUACAG [Mat - Exclusion 3 - Eli Mod - D46] (Eterna round: R97, puzzle: Exclusion 3) is 15.7 nM

The sequence UAUGUUUUAGGAUAUUGUACUGCUGACAUGAGGAUCACCCAUGUAUGCUAACUCGGCCGUCGAGAAGGAGAAUAUG [BotMod 30 - Jieux - Exclusion 5] (Eterna round: R97, puzzle: Exclusion 5) showed apparent KD of MS2 coat protein equal to 63.8 nM

# apparent KD of MS2 coat protein (sequence: UUUGUGUAAGGAUAUGCGAGCCACGGAAAUAAAACGUGGAGGUAGAAGGUACAUGAGGAUCACCCAUGUAAAAC [Mod of Anonveat 21 - Jieux - Exclusion 4] (Eterna round: R97, puzzle: Exclusion 4) ) is 30 nM

Noted for UUUGUUUAUGUAGGAUAUGCCUGGCGUGCCUUUGCAGAAGGACAUGAGGAUCACCCAUGUAUUGCGGUCUGCGUUCAGAUCGCU [salish99_ExNG1_r4_037] (Eterna round: R96, puzzle: Exclusion NG 1) : its apparent KD of MS2 coat protein reads 34.8 nM

Consider UACAAGCUUUUAAGAUCCCACAUGAGGAUCACCCAUGUGCUCGUCUUAUAACGUACUGUGACGAAAGUCACGGUACG [JL TOV1 3.24] (Eterna round: R97, puzzle: Sensor, turn-off variant 1) . Its measured apparent KD of MS2 coat protein is 24.3 nM

Item: GCACGACAUCAGGAUAUGACUAGCUGCGGCUAGUCAGAAGGGAUGACAUGAGGAUCACCCAUGUGAUCACGUGC [E6/2-B3] (Eterna round: R97, puzzle: Exclusion 6) | apparent KD of MS2 coat protein: 85.3 nM

Measured apparent KD of MS2 coat protein of UGAGACUGAGGAUAUACUUGCCCAUAAAGUGGGUAGUGGGUACAUGAGGAUCACCCAUGUAGAAGGCAGCCUCG [Omei Repeat Sequence v3] (Eterna round: R97, puzzle: Exclusion 2) : 46.3 nM

ACAAGCAUUUAUAUUUUAAAAUUUUAUCGUCUUAUAAUUACAUGAGGAUCACCCAUGUAUAAAGGGUGAAUAAUAAU [JR_Sensorv2_tov2_Sub550] (Eterna round: R96, puzzle: Sensor v2, turn-off variant 2) has a reported apparent KD of MS2 coat protein of 91.8 nM

Per the record, UGCGAGUAAGGAUAUUCGCGACCGCCCACAAGGGCAGUCGAGAAGAAGGUACUUGAGGAUCACCCAAGUCCUAA [Quondius] (Eterna round: R97, puzzle: Exclusion 4) has apparent KD of MS2 coat protein of 20.8 nM

sequence GCACGAAGUGUAGGAUAUCUGUGCGAUUAGCUCAGAGAAGGACACAUGAGGAUCACCCAUGUGUUCCAAUACCCAAAUACGUGC [Eli exng1 - 061] (Eterna round: R96, puzzle: Exclusion NG 1) , apparent KD of MS2 coat protein observed: 11.3 nM

The reported value for GGUACCUCUGUUAGGAUAUUGUUAGUGUGAAGCGACGAGAAGGAACAUGAGGAUCACCCAUGUUGCAUCGUAAA [Eternabot (L2) Solution 54] (Eterna round: R97, puzzle: Brourd's mod of Exclusion 4) in terms of apparent KD of MS2 coat protein is 27.1 nM

Reported apparent KD of MS2 coat protein ( CACUUACAUGAGGAUCACCCAUGUGAGGAUAUCGUGACCAGACGAGAAGUCUAUGUCACGAGAAGGUACAUGGG [Exclusion 1 (Mod 1.1 solution 97 by Eternabot)] (Eterna round: R97, puzzle: Exclusion 1) ) = 574 nM

// sample AUGCUCCGUGUAGGAUAUCGCCGCAUCACUCGGCGAGAAGGACAUGAGGAUCACCCAUGUAUGUUAUUAUCACGUGUGGCGCGC [Design 44] (Eterna round: R96, puzzle: Exclusion NG 1) , its apparent KD of MS2 coat protein was 25.3 nM

# sequence GGAUUACAUGAGGAUCACCCAUGUCAGGAUAUGAAAGCAUAUGCCGAAAGGCAUAUGCGCAGAAGGGACAAUAU [AK-MS2ROC-r4-exclusion1-3.0] (Eterna round: R97, puzzle: Exclusion 1) ; its apparent KD of MS2 coat protein = 27.5 nM

In plain terms, UUUAAACAUGAGGAUCACCCAUGUAAGGAUAUACGAAUGCAGACACACACGGAUGCAAGUAGAAGGUACAAUGC [Design #9] (Eterna round: R97, puzzle: Exclusion 1) has a documented apparent KD of MS2 coat protein of 42.6 nM

Documented apparent KD of MS2 coat protein of UUUUAGUCAGGAUAUACAUGAGGAUCACCCAUGUAAAAUUUUAAUUUAAUUUGAAUGUGUAGAAGGGACAUUUU [Ex3 #41] (Eterna round: R97, puzzle: Exclusion 3) : 26.4 nM
